assay: Metabolic stability in human serum assessed as half life at 2.5 uM measured upto 120 mins in presence of NADPH by LC-MS analysis; type: ADME, cell-free; conditions: 2 h
Could you please report measured t1/2 for the items listed next?
Give the number first and the unit second.

Smiles Representation	Observed Result
CN(C)CCc1c[nH]c2cccc(OC(=O)CC3CC3)c12	1 min
CC(C)OC(=O)OCOc1cccc2c1c(CCN(C)C)cn2COC(=O)OC(C)C	3 min
CN(C)CCc1c[nH]c2cccc(OC(=O)OCC3CC3)c12	3 min
CN(C)CCc1c[nH]c2cccc(OC(=O)c3cccc(C(=O)Oc4cccc5[nH]cc(CCN(C)C)c45)c3)c12	101 min
COc1ccc(C(=O)Oc2cccc3[nH]cc(CCN(C)C)c23)cc1	1 min

Attention now turns to another entry.
(Q) Name the recorded t1/2 of the item CN(C)CCc1cn(C(=O)OCc2ccccc2)c2cccc(OC(=O)OCc3ccccc3)c12 in your answer.
(A) 0.8 min

---

Could you please report measured t1/2 for the items listed next?
experiment: Metabolic stability in human liver S9 fraction assessed as half life at 2.5 uM measured upto 120 mins in presence of NADPH by LC-MS analysis; format: ADME, subcellular; details: s9, 2 h, 2.5 µM
Give bare numbers, in min.

List the reported t1/2 of each compound below.
1. CN(C)CCc1c[nH]c2cccc(O[Si](c3ccccc3)(c3ccccc3)C(C)(C)C)c12
2. CN(C)CCc1c[nH]c2cccc(OC(=O)c3ccc(Br)cc3)c12

(A)
1. 391
2. 39

List the reported t1/2 of each compound below.
1. CCC(=O)Oc1cccc2c1c(CCN(C)C)cn2[Si](C(C)C)(C(C)C)C(C)C
2. CN(C)CCc1c[nH]c2cccc(OC(=O)CC3CC3)c12
3. CN(C)CCc1c[nH]c2cccc(O[Si](C)(C)C(C)(C)C)c12

(A)
1: 3; 2: 3; 3: 191

---

test: Drug metabolism in human serum assessed as psilocin formation at 2.5 uM after 120 mins by LC-MS analysis; assay type: ADME, cell-free; conditions: 2 h
Could you please report measured Drug metabolism for the items listed next?
Numbers only, in µM.

Check out these entries, answers already filled in.
Smiles Representation	Drug metabolism (µM)
CN(C)CCc1c[nH]c2cccc(OC(=O)OCc3ccccc3)c12	0
CN(C)CCc1c[nH]c2cccc(OC(=O)OCC(Cl)(Cl)Cl)c12	0
CN(C)CCc1c[nH]c2cccc(OC(=O)SCc3ccccc3)c12	0.385
CN(C)CCc1c[nH]c2cccc(OP(=O)(Oc3ccccc3)Oc3ccccc3)c12	0.069
CCCCC(=O)OCOc1cccc2[nH]cc(CCN(C)C)c12	0

(Q) Name the recorded Drug metabolism of the item CCCC(=O)OCOc1cccc2[nH]cc(CCN(C)C)c12 in your answer.
(A) 0

---

Could you please report measured t1/2 for the items listed next?
test: Metabolic stability in human liver microsomes assessed as half life at 2.5 uM measured upto 120 mins in presence of NADPH by LC-MS analysis; format: ADME, Microsome; settings: microsomes, 2 h, 2.5 µM
Give bare numbers, in min.

Compound	Unit Abbreviation	t1/2
CN(C)CCc1c[nH]c2cccc(OC(=O)OCc3ccccc3)c12	min	113

List the reported t1/2 of each compound below.
1. CCOC(=O)[C@@H](C)NP(=O)(Oc1ccccc1)Oc1cccc2c1c(CCN(C)C)cn2[Si](C(C)C)(C(C)C)C(C)C (stereo partly specified)
2. CCCCC(=O)OCOc1cccc2[nH]cc(CCN(C)C)c12

(A)
22
4
